# Target Desc: GATA4 transcriptional activity (Mus musculus)
# Construct: expressed in transfected cells; host or cells: COS-1
# Sequence (Q08369 whole entry): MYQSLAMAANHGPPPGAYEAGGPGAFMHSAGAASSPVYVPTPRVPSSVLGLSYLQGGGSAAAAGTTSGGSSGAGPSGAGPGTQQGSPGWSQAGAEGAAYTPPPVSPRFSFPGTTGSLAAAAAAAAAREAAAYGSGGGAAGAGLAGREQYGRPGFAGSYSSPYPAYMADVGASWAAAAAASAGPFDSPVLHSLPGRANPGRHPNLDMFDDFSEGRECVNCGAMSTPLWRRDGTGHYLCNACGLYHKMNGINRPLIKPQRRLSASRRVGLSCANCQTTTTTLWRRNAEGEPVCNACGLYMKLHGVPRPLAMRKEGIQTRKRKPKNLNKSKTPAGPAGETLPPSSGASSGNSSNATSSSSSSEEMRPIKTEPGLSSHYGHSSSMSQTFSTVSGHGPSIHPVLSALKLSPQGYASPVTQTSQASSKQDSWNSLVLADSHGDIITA
# Protocol Summary: GATA4 luciferase reporter assay (tandem GATA-site reporter, COS-1 cells)
# Assay type: cell-based
# Cond: 10 µM compound; GATA4 luciferase reporter, COS-1 cells
Let's look at some compounds and their measured activity at 10 µM.
Field format: number, assumed %, no unit text.

Field: example entries. Status: answers known.
{"Compound": "CCN(CC)c1ccc(-n2c(=O)c3c(C)onc3c3ccccc32)cc1", "Metric Name": "activity at 10 µM", "Recorded Result": 113}
{"Compound": "Cc1cc(-c2onc(C)c2C(=O)Nc2ccc3oc(-c4ccccc4)cc(=O)c3c2)no1", "Metric Name": "activity at 10 µM", "Recorded Result": 123}
{"Compound": "CCc1noc(C)c1C(=O)Nc1ccc(N(CC)CC)cc1 [Compound 39b]", "Metric Name": "activity at 10 µM", "Recorded Result": 143}

Query compound follows.
Lab note: need activity at 10 µM for CCN(c1ccc(NC(=O)c2c(C)noc2-c2cc(C)on2)cc1)C(C)C on GATA4 transcriptional activity (Mus musculus), anyone have it?
125
